Exercise: state measured inhibition at 0.5 µM for each of the molecules provided.
# Measurement target: epidermal growth factor receptor kinase (EGF-R Kinase, recombinant enzyme; His-tagged cytoplasmic domain of EGFR) (Homo sapiens)
# Construct: EGFR cDNA encoding amino acids 645 - 1186 preceded by Met-Ala-(His)6; Met-Ala-(His)6 (N); made in house; host or cells: Sf9 insect cells, recombinant baculovirus vHcEGFR52
# Experiment notes: Inhibition of Epidermal Growth Factor Receptor Kinase (EGF-R) using recombinant enzyme, RR-SRC peptide phosphorylation, 33P-ATP
# Type: biochemical
# Experimental parameters: read-out: %Inh @ 0.5 µM
Numbers only here, please. The scale is %.

[ask] Data request, read-out inhibition at 0.5 µM, for COc1cc2ncc(C#N)c(Nc3cccc4cnccc34)c2cc1OC [Example 133]
[reply] 0

[ask] Data request, read-out inhibition at 0.5 µM, for CCOc1cc2ncc(C#N)c(Nc3ccc4c(c3)C(=O)OC4)c2cc1OCC [Example 111]
[reply] 10

[ask] Data request, read-out inhibition at 0.5 µM, for COc1cc2ncc(C#N)c(Nc3ccc(O)c4ncccc34)c2cc1OC [Example 135]
[reply] 0

[ask] Data request, read-out inhibition at 0.5 µM, for COc1cc2c(Nc3ccc4cn[nH]c4c3)c(C#N)cnc2cc1OCCN1CCOCC1 [Example 168]
[reply] 1

[ask] Data request, read-out inhibition at 0.5 µM, for COc1cccc2c(Nc3ccc4cn[nH]c4c3)c(C#N)cnc12 [Example 148]
[reply] 11

====

Exercise: state measured log10(IC50) for each of the compounds provided.
# Test system: 3T3/c-erbb2
# Experiment notes: Inhibition of Cancer Cell Growth as Measured by Cell Number (Sulforhodamine B)
# Assay type: cell-based
# Experimental parameters: 48 hours exposure
A difference of one corresponds to tenfold IC50; all values are log10 with IC50 in µg/mL.

[ask] Data request, read-out log10(IC50), for CCOc1cc2ncc(C#N)c(Nc3ccc4c(c3)CCC4)c2cc1OCC [Example 108]
[reply] -1.70

[ask] Data request, read-out log10(IC50), for CCOc1cc2ncc(C#N)c(Nc3ccc4cc[nH]c4c3)c2cc1OCC [Example 101]
[reply] -0.03

[ask] Data request, read-out log10(IC50), for CCOc1cc2ncc(C#N)c(Nc3ccc4cn[nH]c4c3)c2cc1OC [Example 115]
[reply] -1.57

[ask] Data request, read-out log10(IC50), for CCOc1cc2c(Nc3ccc4cn[nH]c4c3)c(C#N)cnc2cc1OC [Example 126]
[reply] 0.68

[ask] Data request, read-out log10(IC50), for CCOc1cc2ncc(C#N)c(Nc3ccc4[nH]c(=O)oc(=O)c4c3)c2cc1OCC [Example 109]
[reply] 0.66

[ask] Data request, read-out log10(IC50), for CCOc1cc2ncc(C#N)c(Nc3ccc4c(c3)S(=O)(=O)C=C4)c2cc1OCC [Example 112]
[reply] -0.60

[ask] Data request, read-out log10(IC50), for CCOc1cc2ncc(C#N)c(Nc3ccc4c(c3)C(=O)OC4)c2cc1OCC [Example 111]
[reply] 0.52

====

# Measurement target: Recombinant human MEK 1 (MAPKK) / recombinant human ERK2 (MAPK) (Mek-Erk) (Homo sapiens, UniProt P28482+Q02750)
# Sequence (P28482 2-360): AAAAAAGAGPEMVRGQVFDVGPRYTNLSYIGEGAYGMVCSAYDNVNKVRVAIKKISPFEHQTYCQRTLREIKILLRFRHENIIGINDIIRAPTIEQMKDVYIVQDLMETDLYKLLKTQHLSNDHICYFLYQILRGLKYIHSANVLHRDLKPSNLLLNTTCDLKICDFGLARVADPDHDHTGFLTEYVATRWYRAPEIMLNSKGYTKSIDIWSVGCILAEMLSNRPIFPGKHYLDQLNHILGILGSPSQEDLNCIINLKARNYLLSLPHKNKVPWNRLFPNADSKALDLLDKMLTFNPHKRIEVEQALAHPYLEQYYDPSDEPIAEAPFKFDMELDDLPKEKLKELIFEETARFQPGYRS
# Sequence (Q02750 whole entry): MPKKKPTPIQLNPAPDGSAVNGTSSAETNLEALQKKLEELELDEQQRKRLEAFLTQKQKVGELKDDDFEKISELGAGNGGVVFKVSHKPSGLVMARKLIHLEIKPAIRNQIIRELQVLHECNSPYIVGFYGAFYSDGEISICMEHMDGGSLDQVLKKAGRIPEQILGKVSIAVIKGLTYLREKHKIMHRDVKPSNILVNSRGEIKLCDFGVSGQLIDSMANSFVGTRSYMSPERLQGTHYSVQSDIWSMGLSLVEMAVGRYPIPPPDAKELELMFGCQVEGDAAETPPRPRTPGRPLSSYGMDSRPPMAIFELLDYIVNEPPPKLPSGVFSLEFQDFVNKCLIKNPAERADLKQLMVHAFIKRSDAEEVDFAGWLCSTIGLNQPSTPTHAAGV
# Experiment notes: Mitogen Activated Protein Kinase (MAPK) assay, two component coupled Mek-Erk test
# Assay type: biochemical
# Experimental parameters: read-out: Mek-Erk
Outcome measure: pIC50
Entry type: numeric. Quantity: pIC50, the -log10 of concentration in molar units.

[ask] Data request, read-out pIC50, for `N#Cc1cnc2cc3c(cc2c1Nc1ccc2cn[nH]c2c1)OCCO3`
[reply] 4.46

[ask] Data request, read-out pIC50, for `COc1ccc2ncc(C#N)c(Nc3ccc4nn[nH]c4c3)c2c1`
[reply] 4.52

[ask] Data request, read-out pIC50, for `COc1cc2ncc(C#N)c(Nc3cccc4ncccc34)c2cc1OC`
[reply] 4.05

====

# Test system: A431
# Experiment notes: Inhibition of Cancer Cell Growth as Measured by Cell Number (Sulforhodamine B)
# Type: cell-based, Human
# Experimental parameters: Homo sapiens, A-431, 48 h, 48 hours exposure
Outcome measure: IC50 (µg/mL)
Numbers only here, please. The scale is µg/mL.

[ask] Data request, read-out IC50, for `CCOc1cc2ncc(C#N)c(Nc3ccc4c(c3)CCC4)c2cc1OCC`
[reply] 0.342

[ask] Data request, read-out IC50, for `CCOc1cc2ncc(C#N)c(Nc3ccc4c(c3)C(=O)NC4=O)c2cc1OCC`
[reply] 0.049

[ask] Data request, read-out IC50, for `CCOc1cc2ncc(C#N)c(Nc3ccc4c(C)cc(=O)oc4c3)c2cc1OCC`
[reply] 0.369

[ask] Data request, read-out IC50, for `COCCOc1cc2ncc(C#N)c(Nc3ccc4cn[nH]c4c3)c2cc1OCCOC`
[reply] 1.96

[ask] Data request, read-out IC50, for `CCOc1cc2ncc(C#N)c(Nc3ccc4cn[nH]c4c3)c2cc1OCC`
[reply] 0.025

[ask] Data request, read-out IC50, for `COc1cc2ncc(C#N)c(Nc3ccc4cn[nH]c4c3)c2cc1OC`
[reply] 1.31

[ask] Data request, read-out IC50, for `CCOc1cc2ncc(C#N)c(Nc3ccc4[nH]nnc4c3)c2cc1OCC`
[reply] 1.61

[ask] Data request, read-out IC50, for `CCOc1cc2ncc(C#N)c(Nc3ccc4cn[nH]c4c3)c2cc1OC`
[reply] 0.0368

[ask] Data request, read-out IC50, for `CCOc1cc2c(Nc3ccc4cn[nH]c4c3)c(C#N)cnc2cc1OC`
[reply] 0.786

[ask] Data request, read-out IC50, for `CCOc1cc2ncc(C#N)c(Nc3ccc4cc[nH]c4c3)c2cc1OCC`
[reply] 0.216

[ask] Data request, read-out IC50, for `CCOc1cc2ncc(C#N)c(Nc3ccc4c(c3)S(=O)(=O)C=C4)c2cc1OCC`
[reply] 0.257

====

Exercise: state measured pIC50 for each of the molecules provided.
# Measurement target: Kinase insert Domain containing Receptor (KDR: the catalytic domain of the VEGF receptor) (Homo sapiens)
# Sequence (P35968 834-1162 limits assumed): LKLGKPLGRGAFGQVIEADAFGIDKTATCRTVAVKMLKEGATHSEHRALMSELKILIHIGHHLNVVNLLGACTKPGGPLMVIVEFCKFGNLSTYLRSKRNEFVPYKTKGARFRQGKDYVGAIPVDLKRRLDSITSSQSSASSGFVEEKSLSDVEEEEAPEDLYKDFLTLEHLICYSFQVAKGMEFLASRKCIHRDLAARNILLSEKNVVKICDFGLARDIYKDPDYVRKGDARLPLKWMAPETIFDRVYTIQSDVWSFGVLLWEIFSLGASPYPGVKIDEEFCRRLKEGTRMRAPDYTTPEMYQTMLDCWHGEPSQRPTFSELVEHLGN
pIC50: −log10 of the molar value. Where a name gives a salt, the structure may show the parent alone.

[ask] Data request, read-out pIC50, for `COc1cc2ncc(C#N)c(Nc3ccc4c(c3)NCC4)c2cc1OC`
[reply] 5.06

[ask] Data request, read-out pIC50, for `COc1cccc2c(Nc3ccc4nn[nH]c4c3)c(C#N)cnc12`
[reply] < 4.02

[ask] Data request, read-out pIC50, for `CCOc1cc2ncc(C#N)c(Nc3ccc4c(=O)[nH][nH]c(=O)c4c3)c2cc1OCC`
[reply] < 4.14

[ask] Data request, read-out pIC50, for CCOc1cc2ncc(C#N)c(Nc3ccc4ncsc4c3)c2cc1OCC [Example 97, HCl Salt]
[reply] < 5.59

[ask] Data request, read-out pIC50, for `COc1cc2ncc(C#N)c(Nc3ccc(O)c4ncccc34)c2cc1OC`
[reply] 4.57

[ask] Data request, read-out pIC50, for `COc1cc2ncc(C#N)c(Nc3cccc4[nH]ccc34)c2cc1OC`
[reply] < 4.54

[ask] Data request, read-out pIC50, for `COc1cc2ncc(C#N)c(Nc3cccc4cnccc34)c2cc1OC`
[reply] < 4.55

====

Exercise: state measured inhibition at 0.5 µM for each of the molecules provided.
# Measurement target: epidermal growth factor receptor kinase (EGF-R Kinase, recombinant enzyme; His-tagged cytoplasmic domain of EGFR) (Homo sapiens, UniProt P00533)
# Construct: EGFR cDNA encoding amino acids 645 - 1186 preceded by Met-Ala-(His)6; Met-Ala-(His)6 (N); made in house; host or cells: Sf9 insect cells, recombinant baculovirus vHcEGFR52
# Sequence (P00533 669-1210): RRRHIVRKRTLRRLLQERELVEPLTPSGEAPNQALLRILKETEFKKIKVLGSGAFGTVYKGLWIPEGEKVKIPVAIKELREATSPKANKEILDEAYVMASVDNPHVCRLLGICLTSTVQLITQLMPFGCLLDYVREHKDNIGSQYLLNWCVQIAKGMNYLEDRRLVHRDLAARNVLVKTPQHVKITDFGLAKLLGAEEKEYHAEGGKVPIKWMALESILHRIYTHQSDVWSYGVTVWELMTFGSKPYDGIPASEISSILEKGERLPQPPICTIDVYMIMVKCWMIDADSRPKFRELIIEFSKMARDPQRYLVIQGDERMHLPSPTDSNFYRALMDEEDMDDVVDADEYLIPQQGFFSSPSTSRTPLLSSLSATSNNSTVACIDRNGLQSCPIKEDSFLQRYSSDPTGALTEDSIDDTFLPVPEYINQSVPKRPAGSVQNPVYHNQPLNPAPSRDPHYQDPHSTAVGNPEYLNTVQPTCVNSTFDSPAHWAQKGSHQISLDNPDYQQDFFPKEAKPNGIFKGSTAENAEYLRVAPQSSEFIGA
# Experiment notes: Inhibition of Epidermal Growth Factor Receptor Kinase (EGF-R) using recombinant enzyme, RR-SRC peptide phosphorylation, 33P-ATP
# Type: biochemical
# Experimental parameters: read-out: %Inh @ 0.5 µM
Structures can show the parent of a compound that is named as a salt.

[ask] Data request, read-out inhibition at 0.5 µM, for `COc1cc2ncc(C#N)c(Nc3ccc4[nH]c(C)nc4c3)c2cc1OC`
[reply] 24%

[ask] Data request, read-out inhibition at 0.5 µM, for `COc1cc2ncc(C#N)c(Nc3ccc4ncccc4c3)c2cc1OC`
[reply] 14%

[ask] Data request, read-out inhibition at 0.5 µM, for `CCOc1cc2ncc(C#N)c(Nc3ccc4cn[nH]c4c3)c2cc1OC`
[reply] 49%

[ask] Data request, read-out inhibition at 0.5 µM, for `CCOc1cc2ncc(C#N)c(Nc3ccc4cc[nH]c4c3)c2cc1OCC`
[reply] 27%

[ask] Data request, read-out inhibition at 0.5 µM, for `COc1cc2c(Nc3ccc4cn[nH]c4c3)c(C#N)cnc2cc1OCCN(C)C`
[reply] 0%

[ask] Data request, read-out inhibition at 0.5 µM, for `COc1cc2c(Nc3ccc4nn[nH]c4c3)c(C#N)cnc2c(OC)c1OC`
[reply] 34%

[ask] Data request, read-out inhibition at 0.5 µM, for `COc1cc2ncc(C#N)c(Nc3cccc4[nH]ccc34)c2cc1OC`
[reply] 33%

[ask] Data request, read-out inhibition at 0.5 µM, for `COc1cc2ncc(C#N)c(Nc3ccc4[nH]cnc4c3)c2cc1OC`
[reply] 34%

[ask] Data request, read-out inhibition at 0.5 µM, for `COc1cc2ncc(C#N)c(Nc3ccc4sc(C)nc4c3)c2cc1OC`
[reply] 5%

[ask] Data request, read-out inhibition at 0.5 µM, for `COc1cc2ncc(C#N)c(Nc3ccc4[nH]c(=O)sc4c3)c2cc1OC`
[reply] 0%

[ask] Data request, read-out inhibition at 0.5 µM, for CCOc1cc2ncc(C#N)c(Nc3ccc4ncsc4c3)c2cc1OCC [Example 97, HCl Salt]
[reply] 7%

[ask] Data request, read-out inhibition at 0.5 µM, for `COc1cc2ncc(C#N)c(Nc3cccc4cccnc34)c2cc1OC`
[reply] 35%

[ask] Data request, read-out inhibition at 0.5 µM, for `COc1ccc2ncc(C#N)c(Nc3ccc4cn[nH]c4c3)c2c1`
[reply] 5.5%

[ask] Data request, read-out inhibition at 0.5 µM, for `COc1cccc2c(Nc3ccc4nn[nH]c4c3)c(C#N)cnc12`
[reply] 9%

[ask] Data request, read-out inhibition at 0.5 µM, for `COc1cc2ncc(C#N)c(Nc3ccc4c(C)cc(=O)[nH]c4c3)c2cc1OC`
[reply] 6.7%

[ask] Data request, read-out inhibition at 0.5 µM, for `COc1ccc2ncc(C#N)c(Nc3ccc4nn[nH]c4c3)c2c1`
[reply] 24%

[ask] Data request, read-out inhibition at 0.5 µM, for `CCOc1cc2ncc(C#N)c(Nc3ccc4c(c3)C(=O)NCC(=O)N4C)c2cc1OCC`
[reply] 25%

[ask] Data request, read-out inhibition at 0.5 µM, for `COc1ccc2c(Nc3ccc4nn[nH]c4c3)c(C#N)cnc2c1`
[reply] 14%

[ask] Data request, read-out inhibition at 0.5 µM, for `COc1cc2ncc(C#N)c(Nc3cccc4ncccc34)c2cc1OC`
[reply] 0%
